Molecular target: GABA-A receptor; alpha-1/beta-3/gamma-2 (Homo sapiens, UniProt P14867+P18507+P28472)
Sequence (P14867 whole entry): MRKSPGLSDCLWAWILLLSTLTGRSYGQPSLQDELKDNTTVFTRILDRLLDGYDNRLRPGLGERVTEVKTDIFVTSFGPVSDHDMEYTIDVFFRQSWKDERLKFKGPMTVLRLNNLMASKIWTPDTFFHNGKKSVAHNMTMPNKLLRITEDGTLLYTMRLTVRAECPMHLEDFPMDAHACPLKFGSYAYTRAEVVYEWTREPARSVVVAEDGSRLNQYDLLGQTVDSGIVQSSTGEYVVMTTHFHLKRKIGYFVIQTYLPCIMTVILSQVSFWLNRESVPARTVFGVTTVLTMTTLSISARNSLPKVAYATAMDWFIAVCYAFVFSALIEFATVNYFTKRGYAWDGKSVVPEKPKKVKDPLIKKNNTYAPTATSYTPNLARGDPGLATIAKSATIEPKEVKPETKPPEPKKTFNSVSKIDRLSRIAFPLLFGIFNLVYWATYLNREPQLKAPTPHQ
Sequence (P18507 whole entry): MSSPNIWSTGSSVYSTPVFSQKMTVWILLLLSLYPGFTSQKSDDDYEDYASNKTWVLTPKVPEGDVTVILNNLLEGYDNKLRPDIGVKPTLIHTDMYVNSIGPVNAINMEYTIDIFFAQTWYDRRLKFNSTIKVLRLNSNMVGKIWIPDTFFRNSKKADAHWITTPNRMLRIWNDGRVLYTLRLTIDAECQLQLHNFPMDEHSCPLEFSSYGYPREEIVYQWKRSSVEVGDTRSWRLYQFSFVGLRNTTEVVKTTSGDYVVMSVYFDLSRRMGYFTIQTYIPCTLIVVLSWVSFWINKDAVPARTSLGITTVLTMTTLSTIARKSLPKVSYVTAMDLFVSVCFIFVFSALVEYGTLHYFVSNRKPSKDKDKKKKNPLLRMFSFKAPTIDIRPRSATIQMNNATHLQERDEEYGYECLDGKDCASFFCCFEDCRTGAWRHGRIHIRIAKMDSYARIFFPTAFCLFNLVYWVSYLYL
Sequence (P28472 whole entry): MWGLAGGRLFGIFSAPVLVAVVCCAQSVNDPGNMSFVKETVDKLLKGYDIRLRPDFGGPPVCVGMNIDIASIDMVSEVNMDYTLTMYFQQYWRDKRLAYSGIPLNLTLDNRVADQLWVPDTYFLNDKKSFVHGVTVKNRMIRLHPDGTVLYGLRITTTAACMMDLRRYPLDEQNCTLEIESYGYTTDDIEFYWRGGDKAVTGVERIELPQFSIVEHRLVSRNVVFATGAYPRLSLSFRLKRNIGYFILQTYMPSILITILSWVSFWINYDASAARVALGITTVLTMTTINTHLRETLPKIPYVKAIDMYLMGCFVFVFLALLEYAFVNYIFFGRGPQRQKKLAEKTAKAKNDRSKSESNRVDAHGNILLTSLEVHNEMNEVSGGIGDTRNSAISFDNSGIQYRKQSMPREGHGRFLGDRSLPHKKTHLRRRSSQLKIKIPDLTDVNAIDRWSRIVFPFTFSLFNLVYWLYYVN
Experiment: Binding affinity to GABAA alpha-1-beta-3-gamma-2 receptor
outcome.measure: Ki (nM)

INSERT INTO measurements (compound, target_or_test_system, qual, observed) VALUES
  ('Cn1c(=O)c2cc(Cl)ccc2n2cnc(CO)c12', 'GABA-A receptor; alpha-1/beta-3/gamma-2 (Homo sapiens, UniProt P14867+P18507+P28472)', '>', 300),
  ('CN1CC2C(C(=O)OC(C)(C)C)=NCN2c2ccc(C#C[Si](C)(C)C)cc2C1=O (stereo unspecified)', 'GABA-A receptor; alpha-1/beta-3/gamma-2 (Homo sapiens, UniProt P14867+P18507+P28472)', '=', 197),
  ('Cn1c(=O)c2cc(Cl)ccc2n2cnc(CCl)c12', 'GABA-A receptor; alpha-1/beta-3/gamma-2 (Homo sapiens, UniProt P14867+P18507+P28472)', '=', 500),
  ('COCc1ncn2c1CN(C)C(=O)c1cc(Cl)ccc1-2', 'GABA-A receptor; alpha-1/beta-3/gamma-2 (Homo sapiens, UniProt P14867+P18507+P28472)', '=', 920),
  ('CCCCCc1ncn2c3ccc(Cl)cc3c(=O)n(C)c12', 'GABA-A receptor; alpha-1/beta-3/gamma-2 (Homo sapiens, UniProt P14867+P18507+P28472)', '=', 2050),
  ('CCCCC(=O)c1ncn2c3ccc(Cl)cc3c(=O)n(C)c12', 'GABA-A receptor; alpha-1/beta-3/gamma-2 (Homo sapiens, UniProt P14867+P18507+P28472)', '=', 1580);
